B1: POU domain, class 3, transcription factor 2, residues 356 to 411; numbered along this chain, P20265 (parent)
chain: KKRTSIEVSVKGALESHFLKCPKPSAQEITSLADSLQLEKEVVRVWFCNRRQKEKR

# Variants of: B1
# test_method_notes: abundance fitness (aPCA) (normalised: wild type 0, dead -1); higher = more abundant; growth selection in yeast, the domain comes from the species named
# condition_summary: Homo sapiens
Where abundance fitness equals or exceeds -0.2, the correct label is satisfied; where it does not, the label is not satisfied.

# mutation_list, label_value
rows = [
    ("L32N", "not satisfied"),
    ("P24V", "not satisfied"),
    ("Q37P", "not satisfied"),
]

// inclusive: abundance fitness at least -0.2? input: C48Y
satisfied

Tell me whether abundance fitness is at least -0.2 here: S16D
satisfied

// inclusive: abundance fitness at least -0.2? input: E54P
not satisfied
